assayed.target: cyno MSLN (Macaca fascicularis)
method: BLI (Octet), bsAb in 1+1 Fab-scFv-Fc format
measure.name: Response

Q: Check the records and state Response for XENP32551 (bispecific antibody, part only; not given: anti-CD3 scFv-Fc arm, constant regions, V domains shown, not shown: another chain or arm of the molecule; a dimerising Fc or GST; small tags and cut ends) VH: QVQLVQSGAEVKKPGASVKVSCKASGYTFTSYYMHWVRQAPGQGLEWMGMIHPNSDNTIYYEKFQGRVTMTVDKSISTAYMELSRLRSDDTAVYYCAIIITPVVPKFDYWGQGTLVTVSS VL: DIVMTQSPDSLAVSLGERATINCKASHDVGTSVAWYQQKPGQSPKLLIYWASTRHTGVPDRFTGSGSGTDFTLTISSLQAEDVAVYFCQQYSSYPLTFGAGTKLEIK
Ans: 1.1
